Tested on: 475296-252-R-J1-PDC spheroid viability
Test: Anticancer human tumor 475296-252-R-J1-PDC patient-derived rectal carcinoma cell line growth inhibition [PI3K]
Settings: curve of first compound; second compound 1 µM; spheroids with HUVEC and MSC
readout-kind: pIC50
Just so you know, pIC50 here is -log10 of the concentration in molar units; reply with that number alone.

(Q) Give the reported pIC50 for this compound. C#Cc1c(F)ccc2cc(O)cc(-c3ncc4c(N5CC6CCC(C5)N6)nc(OCC56CCCN5CC(F)C6)nc4c3F)c12 (configuration not stated) + CC(Nc1ccc2c(c1)OCCn1cc(N3C(=O)OCC3C(F)F)nc1-2)C(N)=O
(A) 6.08

(Q) Fill in pIC50 for record CC1(C)CCC(Nc2ncc(C(F)(F)F)c(-c3c[nH]c4c(P(C)(C)=O)c(C#N)ccc34)n2)CN1 (configuration not stated) + COc1c(OCCCN2CCOCC2)ccc2c3n(c(=NC(=O)c4cnc(N)nc4)nc12)CCN3
(A) 5.85

(Q) Specify pIC50 for CC1(C)CCC(CN2CCN(c3ccc(C(=O)NS(=O)(=O)c4ccc(NCC5CCOCC5)c([N+](=O)[O-])c4)c(Oc4cnc5[nH]ccc5c4)c3)CC2)=C(c2ccc(Cl)cc2)C1 + COc1c(OCCCN2CCOCC2)ccc2c3n(c(=NC(=O)c4cnc(N)nc4)nc12)CCN3 and stop.
(A) 5.25

###

Exercise: state measured viability, T/C for each of the molecules provided.
Tested on: 475296-252-R-J1-PDC spheroid viability
Assay: Anticancer human tumor 475296-252-R-J1-PDC cell line growth inhibition [PI3K];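 further: spheroids exposed to agents for seven days before readout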
Details: second compound 1 µM; first compound 10 µM; stronger effect = lower value; spheroids with HUVEC and MSC
Write the number in % without appending the unit.

(Q) Answer with the recorded viability, T/C for the molecule listed here: C=CC(=O)N1CCN(c2nc(=O)n(-c3c(C)ccnc3C(C)C)c3nc(-c4c(O)cccc4F)c(F)cc23)C(C)C1 (stereo unspecified) + CC(Nc1ccc2c(c1)OCCn1cc(N3C(=O)OCC3C(F)F)nc1-2)C(N)=O
(A) 81.3

(Q) Supply measured viability, T/C of Cn1ncc(Cl)c1-c1cc(C(=O)NC(CN)Cc2cccc(F)c2)sc1Cl (stereo unspecified) + Cc1nc(NC(=O)N2CCCC2C(N)=O)sc1-c1ccnc(C(C)(C)C(F)(F)F)c1 in your reply.
(A) 51.2

(Q) Quick one: give measured viability, T/C for Cn1ncc(Cl)c1-c1cc(C(=O)NC(CN)Cc2cccc(F)c2)sc1Cl (stereo unspecified) + CC(Nc1ccc2c(c1)OCCn1cc(N3C(=O)OCC3C(F)F)nc1-2)C(N)=O
(A) 36.6

(Q) Give me measured viability, T/C, please, for this molecule: CC(Cn1ccc(-c2ccc(C#N)c(Cl)c2)n1)NC(=O)c1cc(C(C)O)[nH]n1 (stereo unspecified) + COc1c(OCCCN2CCOCC2)ccc2c3n(c(=NC(=O)c4cnc(N)nc4)nc12)CCN3
(A) 64

(Q) Let me know recorded viability, T/C for CCCS(=O)(=O)Nc1ccc(F)c(C(=O)c2c[nH]c3ncc(-c4ccc(Cl)cc4)cc23)c1F + Cc1nc(NC(=O)N2CCCC2C(N)=O)sc1-c1ccnc(C(C)(C)C(F)(F)F)c1 , thanks.
(A) 82

(Q) Determine from records and report viability, T/C for CCCS(=O)(=O)Nc1ccc(F)c(C(=O)c2c[nH]c3ncc(-c4ccc(Cl)cc4)cc23)c1F + CC(Nc1ccc2c(c1)OCCn1cc(N3C(=O)OCC3C(F)F)nc1-2)C(N)=O
(A) 72.7

(Q) Provide only the value of recorded viability, T/C for C#Cc1c(F)ccc2cc(O)cc(-c3ncc4c(N5CC6CCC(C5)N6)nc(OCC56CCCN5CC(F)C6)nc4c3F)c12 (stereo unspecified) + Cc1nc(NC(=O)N2CCCC2C(N)=O)sc1-c1ccnc(C(C)(C)C(F)(F)F)c1
(A) 32.7

(Q) Give the measured viability, T/C for CNC(=O)c1ccc(N2C(=S)N(c3ccc(C#N)c(C(F)(F)F)c3)C(=O)C2(C)C)cc1F + COc1c(OCCCN2CCOCC2)ccc2c3n(c(=NC(=O)c4cnc(N)nc4)nc12)CCN3
(A) 61.5

(Q) Report viability, T/C for CNC(=O)c1ccc(N2C(=S)N(c3ccc(C#N)c(C(F)(F)F)c3)C(=O)C2(C)C)cc1F + CC(Nc1ncnc2nc[nH]c12)c1cc2cccc(Cl)c2c(=O)n1-c1ccccc1
(A) 99.7

(Q) Indicate its recorded viability, T/C; the molecule in question is CCCS(=O)(=O)Nc1ccc(F)c(C(=O)c2c[nH]c3ncc(-c4ccc(Cl)cc4)cc23)c1F + CC(Nc1ncnc2nc[nH]c12)c1cc2cccc(Cl)c2c(=O)n1-c1ccccc1
(A) 96.6

(Q) Name the recorded viability, T/C of the item Cn1nccc1Nc1nccc(-c2ccn(C(CO)c3ccc(Cl)c(F)c3)c(=O)c2)n1 (stereo unspecified) + Cc1nc(NC(=O)N2CCCC2C(N)=O)sc1-c1ccnc(C(C)(C)C(F)(F)F)c1 in your answer.
(A) 59.9

###

Tested on: 475296-252-R-J1-PDC spheroid viability
Assay: Anticancer human tumor 475296-252-R-J1-PDC cell line growth inhibition [PI3K];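 further: spheroids exposed to agents for seven days before readout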
Details: curve of first compound; second compound 0.0316 µM; spheroids with HUVEC and MSC
For each entry below, report its IC50 value.

(Q) Provide IC50 value for the following compound: C=CC(=O)N1CCN(c2nc(=O)n(-c3c(C)ccnc3C(C)C)c3nc(-c4c(O)cccc4F)c(F)cc23)C(C)C1 (stereo not given) + CC(Nc1ncnc2nc[nH]c12)c1cc2cccc(Cl)c2c(=O)n1-c1ccccc1
(A) > 10 µM

(Q) Indicate the recorded IC50 value for this compound: C#Cc1c(F)ccc2cc(O)cc(-c3ncc4c(N5CC6CCC(C5)N6)nc(OCC56CCCN5CC(F)C6)nc4c3F)c12 (stereo not given) + CC(Nc1ccc2c(c1)OCCn1cc(N3C(=O)OCC3C(F)F)nc1-2)C(N)=O
(A) > 10 µM

(Q) Complete the entry with IC50 for C=CC(=O)N1CCN(c2nc(=O)n(-c3c(C)ccnc3C(C)C)c3nc(-c4c(O)cccc4F)c(F)cc23)C(C)C1 (stereo not given) + CC(Nc1ccc2c(c1)OCCn1cc(N3C(=O)OCC3C(F)F)nc1-2)C(N)=O
(A) > 10 µM

(Q) Output IC50 of C#Cc1c(F)ccc2cc(O)cc(-c3ncc4c(N5CC6CCC(C5)N6)nc(OCC56CCCN5CC(F)C6)nc4c3F)c12 (stereo not given) + COc1c(OCCCN2CCOCC2)ccc2c3n(c(=NC(=O)c4cnc(N)nc4)nc12)CCN3
(A) 0.875 µM

(Q) Input Cn1cnc2c(F)c(Nc3ccc(Br)cc3Cl)c(C(=O)NOCCO)cc21 + CC(Nc1ccc2c(c1)OCCn1cc(N3C(=O)OCC3C(F)F)nc1-2)C(N)=O , output reported IC50.
(A) > 3 µM

###

Exercise: for every item that follows, state its recorded viability, T/C.
Tested on: 475296-252-R-J1-PDC spheroid viability
Test: Anticancer human tumor 475296-252-R-J1-PDC cell line growth inhibition [PI3K];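 further: spheroids exposed to agents for seven days before readout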
Conditions: second compound 0.00316 µM; first compound 0.0316 µM; stronger effect = lower value; spheroids with HUVEC and MSC
Write the answer as a number in %, unit excluded.

(Q) Recall and state the measured viability, T/C for CCN1CCN(Cc2ccc(Nc3ncc(F)c(-c4cc(F)c5nc(C)n(C(C)C)c5c4)n3)nc2)CC1 + COc1c(OCCCN2CCOCC2)ccc2c3n(c(=NC(=O)c4cnc(N)nc4)nc12)CCN3 .
(A) 97.5

(Q) Give the measured viability, T/C for CC(C)NCC(C(=O)N1CCN(c2ncnc3c2C(C)CC3O)CC1)c1ccc(Cl)cc1 (stereo not drawn) + COc1c(OCCCN2CCOCC2)ccc2c3n(c(=NC(=O)c4cnc(N)nc4)nc12)CCN3
(A) 98.5

(Q) Please give the documented viability, T/C of CC1(C)CCC(Nc2ncc(C(F)(F)F)c(-c3c[nH]c4c(P(C)(C)=O)c(C#N)ccc34)n2)CN1 (stereo not drawn) + CC(Nc1ccc2c(c1)OCCn1cc(N3C(=O)OCC3C(F)F)nc1-2)C(N)=O
(A) 96.4

###

Tested on: 475296-252-R-J1-PDC spheroid viability
Test: Anticancer human tumor 475296-252-R-J1-PDC cell line growth inhibition [PI3K];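 further: spheroids exposed to agents for seven days before readout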
Conditions: curve of first compound; second compound 0.01 µM; spheroids with HUVEC and MSC
Text: Combinatorial screen of targeted agents with the PI3K inhibitors inavolisib, alpelisib, duvelisib, and copanlisib in multi-cell type tumor spheroids A high-throughput screen of multi-cell type tumor spheroids was designed to identify active combinations of targeted small molecules and PI3K pathway inhibitors. […] Compounds. […] If the clinical Cmax for an agent had not been determined, the highest concentration tested was 10 microM. […]
pIC50: −log10 of the molar value.
Exercise: state measured pIC50 for each of the compounds provided.

(Q) Provide pIC50 value for the following compound: Cn1cnc2c(F)c(Nc3ccc(Br)cc3Cl)c(C(=O)NOCCO)cc21 + COc1c(OCCCN2CCOCC2)ccc2c3n(c(=NC(=O)c4cnc(N)nc4)nc12)CCN3
(A) 6.33

(Q) Annotate the compound CCCS(=O)(=O)Nc1ccc(F)c(C(=O)c2c[nH]c3ncc(-c4ccc(Cl)cc4)cc23)c1F + CC(Nc1ccc2c(c1)OCCn1cc(N3C(=O)OCC3C(F)F)nc1-2)C(N)=O with its measured pIC50.
(A) < 5.00

(Q) For the compound CC(Cn1ccc(-c2ccc(C#N)c(Cl)c2)n1)NC(=O)c1cc(C(C)O)[nH]n1 (stereo unspecified) + COc1c(OCCCN2CCOCC2)ccc2c3n(c(=NC(=O)c4cnc(N)nc4)nc12)CCN3 , give its reported pIC50.
(A) < 5.00

(Q) Using the record for CCN1CCN(Cc2ccc(Nc3ncc(F)c(-c4cc(F)c5nc(C)n(C(C)C)c5c4)n3)nc2)CC1 + CC(Nc1ccc2c(c1)OCCn1cc(N3C(=O)OCC3C(F)F)nc1-2)C(N)=O , state its measured pIC50.
(A) < 6.00

(Q) Find the measured pIC50 of Cn1nccc1Nc1nccc(-c2ccn(C(CO)c3ccc(Cl)c(F)c3)c(=O)c2)n1 (stereo unspecified) + COc1c(OCCCN2CCOCC2)ccc2c3n(c(=NC(=O)c4cnc(N)nc4)nc12)CCN3 and report it.
(A) < 5.00

(Q) # return recorded pIC50 for entry CC(C)NCC(C(=O)N1CCN(c2ncnc3c2C(C)CC3O)CC1)c1ccc(Cl)cc1 (stereo unspecified) + COc1c(OCCCN2CCOCC2)ccc2c3n(c(=NC(=O)c4cnc(N)nc4)nc12)CCN3
(A) < 5.00
